# FXa generation rate at 12.5 nM mAb per record follows
- Target desc: human plasma-derived FIXa (Haematologic Technologies Inc) (human, UniProt P00740 47-191; P00740 227-461)
- Sequence (P00740 47-191, chain 1 of 2): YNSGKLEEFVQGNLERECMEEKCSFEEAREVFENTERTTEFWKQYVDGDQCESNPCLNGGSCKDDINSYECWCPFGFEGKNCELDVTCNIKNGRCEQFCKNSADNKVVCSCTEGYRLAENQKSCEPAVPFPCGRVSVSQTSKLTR
- Sequence (P00740 227-461, chain 2 of 2): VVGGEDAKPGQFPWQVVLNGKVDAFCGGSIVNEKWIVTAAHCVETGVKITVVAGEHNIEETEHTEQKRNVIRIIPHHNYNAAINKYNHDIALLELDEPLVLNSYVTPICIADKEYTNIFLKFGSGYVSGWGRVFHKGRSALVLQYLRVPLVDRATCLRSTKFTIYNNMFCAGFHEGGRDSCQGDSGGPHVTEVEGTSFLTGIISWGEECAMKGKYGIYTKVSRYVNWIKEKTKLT
- Protocol text: cell-based or functional assay

Binder: mAb1-4071 (antibody, V domains shown) VH: EVQLVQSGAEVKKPGESLRISCKGSGYSFTPYWIGWVRQMPGKGLEWMGMIDPSDSYTDYGPSFRGHVTISADKSISTAYLQWSSLKASDTAMYYCARVRIREGAFDIWGQGTMVTVSS VL: DIVMTQSPLSLPVTPGEPASISCRSSQRLLHSTGYNYLNWYLQKPGQSPQLLIYLGSRRASGVPDRFSGSGSGTDFTLKISRVEAEDVGVYYCMQALHIPYTFGQGTKLEIK
FXa generation rate at 12.5 nM mAb (pM/min): 97
//
Binder: mAb1-4763 (antibody, V domains shown) VH: EVQLVESGGGLVQPGRSLRLSCAASGFTFGDYAMHWVRQAPGKGLEWVSGISWNSGSIGYAKSVKGRFTISRDNAKNSLYLQMNSLRAEDTALYYCAKGQYDEDAGMDVWGQGTTVTVSS VL: DIQMTQSPSSLSASVGDRVTITCRASQWISSYLNWYQQKPGKAPKLLIYAASSLPSGVPSRFSGSGSGTDFTLTISSLQPEDFATYYCQQGYPTWTFGGGTKVEIK
FXa generation rate at 12.5 nM mAb (pM/min): 381
//
Binder: mAb1-4857 (antibody, V domains shown) VH: EVQLVESGGGLVQPGRSLKLSCAASGFTFDDYAMHWVRQVPGKGLEWVSGISWRGDIIGYVDSVKGRFTISRDNAKNSLYLQLNSLRAEDTALYYCVKSYGSGSFYNAFDSWGQGTLVTVSS VL: DIQMTQSPSTLSASAGDRVTITCRASQSISSWLAWYQQKPGKAPKFLIYKASRLERGVPSRFSGSGSGTEFSLTISSLQPDDFATYYCLEYSSYIRTFGQGTKVEIK
FXa generation rate at 12.5 nM mAb (pM/min): 685
